The following molecules are shown together with reported viability at 28.5 h, 10 µM values.
assay.remarks: in vitro
condition.label: human, hela cells, % viability

{"columns": ["molecule", "viability at 28.5 h, 10 µM"],
 "data": [
  ["CC(NC(=O)C1CCN(Cc2ncc[nH]2)CC1)c1ccc(F)cc1 (stereo not shown)", "97%"],
  ["[O-][S+]1c2ccccc2Oc2ccccc21", "94.7%"],
  ["CC(C)(C)C(=O)N1CCCC(c2cc3cccnc3[nH]2)C1 (stereo not shown)", "102%"],
  ["CC1(C)SC(c2ccc(F)cc2)N[C@H]1C(=O)O (stereo partly shown)", "91.4%"],
  ["COc1cc(CNc2cc(-c3ccc(NC(C)=O)cc3)ncn2)cc(OC)c1OC", "93.6%"],
  ["CN1CCN(CCCNC(=O)c2ccc(-c3ccc(C(=O)N(C)C)cc3)nc2)CC1", "95%"],
  ["O=C(O)c1nc(/N=C/c2ccc(C#Cc3ccccc3)cc2)n[nH]1", "90.3%"],
  ["Cn1c(=O)c(C(=O)Nc2ccccc2S(N)(=O)=O)c(O)c2ccccc21", "85.5%"],
  ["Cc1ccn2cc(-c3ccc4c(c3)CC(C)N4S(C)(=O)=O)cc2c1 (stereo not shown)", "89%"],
  ["Cc1nn(CC(C)C(=O)N2CCCC(CN(C)C)C2)c(C)c1Cl (stereo not shown)", "102%"],
  ["CS(=O)(=O)N/N=C/c1ccc(Cl)cc1Cl", "105%"],
  ["COc1ccc(N2CCN(c3cc(-c4cc(C(F)(F)F)cc(C(F)(F)F)c4)ncn3)CC2)cc1OC", "96.1%"],
  ["CC(=O)Nc1ccc(NC(=O)CSCc2ccc(Cl)cc2Cl)cc1", "96.4%"],
  ["O=[N+]([O-])c1cccc(S(=O)(=O)NCCSc2ccccc2)c1", "94.1%"],
  ["O=C(O)/C=C/c1cccc(-c2cncc(N3CCN(Cc4ccccn4)CC3)n2)c1", "96%"],
  ["CS(=O)(=O)c1ccc(-c2cnc3[nH]c(=O)n(-c4ccc5[nH]ccc5c4)c3n2)cc1", "96.6%"],
  ["O=C(NCCc1c[nH]c2ccc(Cl)cc12)c1ccc(Cl)cc1Cl", "105%"],
  ["Cc1ccc(CNc2nc3c(c(=O)[nH]c(=O)n3C)n2CC(O)COC(C)C)cc1 (stereo not shown)", "87.3%"],
  ["CCC(O)CNS(=O)(=O)c1ccc(OC(F)(F)F)cc1 (stereo not shown)", "97.9%"]
]}

###

assay.remarks: in vitro
condition.label: human, hela cells, % viability

{"columns": ["compound", "viability at 28.5 h, 10 µM, %"],
 "data": [
  ["COc1ccc(CCC(=O)N2CCC(c3cccc(Cc4cccc(F)c4)n3)CC2)cc1", 105],
  ["Cc1cc(C)n(C2CCN(Cc3nc4ccccc4n3C)CC2)n1", 84.3],
  ["O=C(c1nccs1)C1CCN(C(=O)Cc2cccc(F)c2)CC1", 94.6],
  ["CCc1cc(C(=O)NC(c2ccncc2)c2cccs2)n(C)n1 (stereo not drawn)", 109],
  ["O=S(=O)(c1ccccc1)N(CC(O)CN1CCCC1)c1cccc2ccccc12 (stereo not drawn) [CBK264464C]", 93.9],
  ["Nc1ccc(Cc2ccc(N)c(C(=O)O)c2)cc1C(=O)O", 92.3],
  ["Cc1oc(C2CC2)cc1C(=O)N[C@H](C)Cn1nnc2ccccc21", 78.1],
  ["O=C(c1cnccc1C(F)(F)F)N1CCc2ccccc21", 112],
  ["c1csc(-c2cncc(NCCCN3CCOCC3)n2)c1", 102],
  ["O=C(CCSc1ccccc1)Nc1ccc(S(=O)(=O)N2CCOCC2)cc1", 114],
  ["Cn1c(N2CC[C@H](O)C2)nc2cc(C(=O)NC[C@@H]3CCCO3)ccc21", 109],
  ["COCc1cc(CC2(NCc3ccc(NC(C)=O)cc3)COC2)no1", 110],
  ["Fc1cccc(-c2nc(-c3cccnc3)no2)c1", 92.6],
  ["CCOC(=O)CN1CCN(c2cc(C#N)ccn2)CC1", 89.3],
  ["COc1ccc(NC(=O)CSc2nnc(N)s2)cc1", 104],
  ["NC(=O)CCCN1CC[C@H]2c3c(cccc3C(N)=O)CC[C@H]21", 93.3],
  ["C=CCN(C)C(=O)[C@H]1C[C@@H](O)[C@H](O)[C@@H]2N=C(Nc3ccc(Cl)cc3)S[C@@H]21", 87],
  ["COc1ccc(-c2c(C)nn3c(=O)c(Cc4ccccc4)c(C)[nH]c23)cc1", 94.2],
  ["CN1CCN(C(=O)c2ccc(-c3ccc(N4CCOCC4)cc3)nc2N(C)C)CC1", 90],
  ["Cc1cc(C(=O)Nc2ccc(S(=O)(=O)Nc3onc(C)c3C)cc2)no1", 95.3],
  ["O=C(Nc1ccc(C(=O)N2CCOCC2)cc1)c1cc(-c2cccnc2)nc2ccc(Cl)cc12", 93],
  ["O=C(N[C@H]1CCN2C(=O)c3ccccc3NC(=O)[C@H]12)c1cccc(F)c1", 89.3],
  ["O=C1NC(=O)C(CCCCN2CCC[C@@H]2CN2CCCC2)N1 (stereo partly drawn)", 93.4],
  ["OC1CCC(Nc2cncc(-c3cccc(Cl)c3)n2)CC1 (stereo not drawn)", 91],
  ["CN1CCN(c2cnn(CCCOc3ccccc3)c(=O)c2)CC1", 100],
  ["CN1CCN(C(=O)c2ccc(-c3cncc(-c4ccc(O)cc4)n3)c(F)c2)CC1", 100],
  ["COc1cc(-c2nc3ncccc3cc2NS(C)(=O)=O)cc(OC)c1OC", 92.7],
  ["Cc1cc(C)n2nc(S(N)(=O)=O)c(C#N)c2n1", 90.7],
  ["c1cncc(COc2cncc(N3CCCC3)n2)c1", 88.4],
  ["COc1ccc(S(=O)(=O)N2CCSC2)cc1C", 106],
  ["CCCn1cnc2sc(C(=O)O)c(C)c2c1=O", 96],
  ["Nc1cccc(Sc2cccc(C(F)(F)F)n2)c1", 99.3],
  ["COc1ccc(C(=O)Nc2ccccc2N2CCNCC2)cc1 [CBK029447T]", 107],
  ["N#Cc1ccc(Cn2ccnc(N3CCC(Sc4ccccc4)CC3)c2=O)cc1", 98.2],
  ["COc1cc(C)c(S(=O)(=O)n2c(C)nc3ccccc32)cc1C", 94],
  ["Cc1ccc(S(=O)(=O)NCC(=O)Nc2ccc(C)cc2C(=O)c2ccccc2)cc1", 85.8],
  ["O=C1CC2(CCN(C(=O)C3CCOC3)CC2)Oc2c(Br)cc(Br)cc21 (stereo not drawn)", 96.4],
  ["COc1ccc(Oc2nccc(N3CCCN(CCc4ccc5ccccc5c4)CC3)n2)cc1OC", 87],
  ["O=C(Cc1ccccc1[N+](=O)[O-])NCCCN1CCOCC1", 92]
]}
